# log10 of IC50 per entry for PDE4B2 (Homo sapiens (Human))
Each number you see is log10 of IC50, and the unit inside the log is nM.

// below: answered molecules
Incoming: Form field: reported log10 of IC50 of CCCc1cccc2c1ncc1c(=O)n(CC)c(=O)n(C3CCCC3)c12
Outgoing: 4.40

Incoming: // repeat for CCn1c(=O)c2cnc3c(Cl)cccc3c2n(C2CCCC2)c1=O and report
Outgoing: 4.23

Incoming: // repeat for COc1cccc2c1ncc1c(=O)n(-c3cccc(Cl)c3)c(=O)n([C@H]3CCN(S(C)(=O)=O)C3)c12 and report
Outgoing: 1.90

Incoming: // repeat for COc1cccc2c1ncc1c(=O)n(-c3ccc4c(c3)OCO4)c(=O)n(C3CCCC3)c12 and report
Outgoing: 2.71

Incoming: // repeat for CCn1c(=O)c2cnc3c(C(C)C)cccc3c2n(C2CCCC2)c1=O and report
Outgoing: 4.09

Could I get log10 of IC50 for every one of these entries?
1. COc1cccc2c1ncc1c(=O)n(-c3cccc(Cl)c3)c(=O)n([C@H]3CC[C@H](C(=O)O)CC3)c12
2. COc1cccc2c1ncc1c(=O)n(-c3cccc(Cl)c3)c(=O)n(C3CCN(S(C)(=O)=O)CC3)c12

Outgoing:
[1.23, 1.83]

====

Target: PDE4D (Homo sapiens (Human), UniProt Q08499)
Sequence (Q08499 whole entry, species assumed): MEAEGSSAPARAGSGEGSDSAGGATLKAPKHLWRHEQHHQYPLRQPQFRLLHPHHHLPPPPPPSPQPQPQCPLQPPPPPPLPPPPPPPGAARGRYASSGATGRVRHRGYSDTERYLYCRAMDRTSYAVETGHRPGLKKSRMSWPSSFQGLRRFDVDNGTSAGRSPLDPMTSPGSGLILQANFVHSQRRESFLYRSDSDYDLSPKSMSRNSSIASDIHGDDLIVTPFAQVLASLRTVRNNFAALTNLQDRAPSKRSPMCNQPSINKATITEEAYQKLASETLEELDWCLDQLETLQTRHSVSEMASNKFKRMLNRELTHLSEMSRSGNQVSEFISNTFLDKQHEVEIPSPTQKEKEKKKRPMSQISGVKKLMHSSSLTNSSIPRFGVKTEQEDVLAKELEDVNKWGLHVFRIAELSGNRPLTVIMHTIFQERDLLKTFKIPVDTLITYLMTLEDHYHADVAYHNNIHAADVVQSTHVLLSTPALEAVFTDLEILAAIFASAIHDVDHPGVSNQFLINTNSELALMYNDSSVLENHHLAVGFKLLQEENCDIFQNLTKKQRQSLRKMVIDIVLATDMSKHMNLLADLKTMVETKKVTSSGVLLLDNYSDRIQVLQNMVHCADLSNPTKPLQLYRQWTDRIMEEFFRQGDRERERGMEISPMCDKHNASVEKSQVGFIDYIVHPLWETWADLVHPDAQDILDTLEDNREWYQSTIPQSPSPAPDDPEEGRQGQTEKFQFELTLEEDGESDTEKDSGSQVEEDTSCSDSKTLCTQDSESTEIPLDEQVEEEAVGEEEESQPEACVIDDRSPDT
Entry class follows IC50: lo (below 200 nM), mid (200 nM to below 800 nM), hi (800 nM or more)

Consider the following illustrative entries.
Incoming: Category lookup for the compound COc1cccc2c1ncc1c(=O)n(-c3cccc(Cl)c3)c(=O)n([C@@H]3CCN(S(C)(=O)=O)C3)c12
Outgoing: lo

Incoming: // repeat for COc1cccc2c1ncc1c(=O)n(-c3cccc(Cl)c3)c(=O)n(C3CCN(S(C)(=O)=O)CC3)c12 and report
Outgoing: lo

Incoming: // repeat for CCS(=O)(=O)N1CCC(n2c(=O)n(-c3cccc(Cl)c3)c(=O)c3cnc4c(OC)cccc4c32)CC1 and report
Outgoing: lo

Incoming: // repeat for COc1cccc2c1ncc1c(=O)n(-c3ccc4c(c3)OCO4)c(=O)n(C3CCCC3)c12 and report
Outgoing: hi

Incoming: // repeat for COc1cccc2c1ncc1c(=O)n(-c3cccc(Cl)c3)c(=O)n([C@H]3CC[C@H](NS(C)(=O)=O)CC3)c12 and report
Outgoing: lo

Incoming: // repeat for CCn1c(=O)c2cnc3c(Cl)cccc3c2n(C2CCCC2)c1=O and report
Outgoing: hi

Incoming: // repeat for CCCc1cccc2c1ncc1c(=O)n(CC)c(=O)n(C3CCCC3)c12 and report
Outgoing: hi

Incoming: // repeat for CCn1c(=O)c2cnc3c(C(C)C)cccc3c2n(C2CCCC2)c1=O and report
Outgoing: hi

***
Incoming: Category lookup for the compound COc1cccc2c1ncc1c(=O)n(-c3cccc(Cl)c3)c(=O)n([C@H]3CC[C@H](C(=O)O)CC3)c12
Outgoing: lo

Incoming: // repeat for COc1cccc2c1ncc1c(=O)n(-c3cc(C)cs3)c(=O)n(C3CCCC3)c12 and report
Outgoing: mid

Incoming: // repeat for COc1cccc2c1ncc1c(=O)n(-c3cccc(C)c3)c(=O)n(C3CCCC3)c12 and report
Outgoing: mid

====

Molecular target: PDE4B2 (Homo sapiens (Human), UniProt Q07343)
Sequence (Q07343 other isoform, or with tags, fused parts or gaps, species assumed): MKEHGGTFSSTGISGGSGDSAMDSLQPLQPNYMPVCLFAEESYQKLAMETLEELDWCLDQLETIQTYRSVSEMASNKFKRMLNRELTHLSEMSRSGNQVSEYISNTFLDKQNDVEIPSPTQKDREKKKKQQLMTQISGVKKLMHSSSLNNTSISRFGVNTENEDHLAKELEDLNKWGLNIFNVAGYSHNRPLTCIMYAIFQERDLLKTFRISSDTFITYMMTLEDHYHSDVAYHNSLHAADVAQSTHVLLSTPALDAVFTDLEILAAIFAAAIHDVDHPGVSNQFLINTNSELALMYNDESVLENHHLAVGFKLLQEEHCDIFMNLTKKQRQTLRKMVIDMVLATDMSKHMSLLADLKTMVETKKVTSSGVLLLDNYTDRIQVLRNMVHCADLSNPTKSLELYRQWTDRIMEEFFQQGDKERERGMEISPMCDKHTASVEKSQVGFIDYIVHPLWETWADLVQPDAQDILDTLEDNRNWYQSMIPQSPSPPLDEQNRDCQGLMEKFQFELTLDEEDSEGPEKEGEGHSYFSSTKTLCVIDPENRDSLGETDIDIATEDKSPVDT
Assay: PDE4 Inhibition Assay (TR-FRET IMAP, FAM-cAMP substrate)
Type: biochemical
Conditions: 100 nM cAMP, 30° C., 90 minutes
Values of IC50 strictly less than 50 nM map to 1.0, and values of at least 50 nM map to 0.0.

Consider the following illustrative entries.
Incoming: I'd appreciate it if you could check whether COc1cccc2c1ncc1c(=O)n(-c3cc(C)cs3)c(=O)n(C3CCCC3)c12 has IC50 smaller than 50 nM.
Outgoing: 0.0

Incoming: // repeat for COc1cccc2c1ncc1c(=O)n(-c3cccc(C)c3)c(=O)n(C3CCCC3)c12 and report
Outgoing: 0.0

Incoming: // repeat for CCS(=O)(=O)N1CCC(n2c(=O)n(-c3cccc(Cl)c3)c(=O)c3cnc4c(OC)cccc4c32)CC1 and report
Outgoing: 1.0

***
Incoming: I'd appreciate it if you could check whether COc1cccc2c1ncc1c(=O)n(-c3cccc(Cl)c3)c(=O)n([C@H]3CC[C@H](NS(C)(=O)=O)CC3)c12 has IC50 smaller than 50 nM.
Outgoing: 1.0
